- targetOrSystem: Human M2 receptor (Homo sapiens)
- Construct: expressed in transfected cells
- Sequence (P08172 1-466): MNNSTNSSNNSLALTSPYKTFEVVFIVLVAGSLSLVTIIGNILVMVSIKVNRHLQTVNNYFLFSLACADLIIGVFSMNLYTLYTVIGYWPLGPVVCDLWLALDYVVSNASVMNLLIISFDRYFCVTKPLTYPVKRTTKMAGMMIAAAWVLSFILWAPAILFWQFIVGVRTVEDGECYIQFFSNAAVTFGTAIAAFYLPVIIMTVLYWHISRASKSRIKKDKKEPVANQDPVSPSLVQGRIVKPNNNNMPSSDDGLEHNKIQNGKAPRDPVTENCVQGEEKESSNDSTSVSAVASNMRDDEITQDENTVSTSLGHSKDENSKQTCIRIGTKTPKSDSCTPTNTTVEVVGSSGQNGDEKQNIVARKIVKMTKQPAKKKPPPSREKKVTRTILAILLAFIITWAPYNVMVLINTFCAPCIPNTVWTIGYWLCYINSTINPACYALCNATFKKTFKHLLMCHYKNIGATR
- assayProcedure: FLIPR Calcium 6 assay for inhibitory activity against Human M2 receptor in CHO cells
- Assay type: cell-based
- appliedConditions: IC50 ratio of M3/M2
observedProperty: M3/M2 selectivity
Give the figure only, with no unit attached.

compound | observedProperty | observedResult
O=C1Nc2cccnc2N(C(=O)CCC(=O)N2CCCC2CN2CCC3(CCCCC3)CC2)c2ccccc21 (stereo not shown) | M3/M2 selectivity | 217.6
CCN(CCN(C)C1CCC2(CCCC2)C1)C(=O)CCC(=O)N1c2ccccc2C(=O)Nc2cccnc21 (stereo not shown) | M3/M2 selectivity | 149
O=C1Nc2cccnc2N(C(=O)CCC(=O)N2CCCCC2CN2CCC3(CCCCC3)CC2)c2ccccc21 (stereo not shown) | M3/M2 selectivity | 394.1
CCN(CCN(C)C1CCC2(CCCCC2)CC1)C(=O)CCC(=O)N1c2ccccc2C(=O)Nc2cccnc21 | M3/M2 selectivity | 189
CCN(CCN(C)C1CC2(CCC2)C1)C(=O)CCC(=O)N1c2ccccc2C(=O)Nc2cccnc21 | M3/M2 selectivity | 295.7
CCN(CCN(C)C12CC3CC(CC(C3)C1)C2)C(=O)CCC(=O)N1c2ccccc2C(=O)Nc2cccnc21 | M3/M2 selectivity | 838

For reference, reported M3/M2 selectivity for CCN(CCN(C)C1CC2CCCC2C1)C(=O)CCC(=O)N1c2ccccc2C(=O)Nc2cccnc21 (stereo not shown) stands at 101

For reference, reported M3/M2 selectivity for CCN(CCN1CC2CC2C1)C(=O)CCC(=O)N1c2ccccc2C(=O)Nc2cccnc21 (stereo not shown) stands at 75.87

For reference, reported M3/M2 selectivity for CCN(CCN1CCC2(CCCCC2)CC1)C(=O)CCC(=O)N1c2ccccc2C(=O)Nc2cccnc21 stands at 76

For reference, reported M3/M2 selectivity for CCN(CCN1CCC2(CCC2)CC1)C(=O)CCC(=O)N1c2ccccc2C(=O)Nc2cccnc21 stands at 157.7
